- assay_info: Drug uptake in Harlan Sprague-Dawley rat brain at 10 mg/kg, po after 24 hrs
- Format: ADME, organism-based
- Parameters: dose 10 mg/kg, route oral
- stated_conditions: read-out: Drug uptake
property_label: concentration at 24 h (nM)
Numbers only, in nM.

Prompt: Input `CC(C)c1cccc(-c2c(-c3ccc4nn(C)cc4c3)nsc2NC(=O)[C@@H]2C[C@H]2C)n1.Cl` , output reported concentration at 24 h.
Completion: 2340

* * *

- assay_info: Bioavailability in Harlan Sprague-Dawley rat at 1.5 mg/kg, po and 1 mg/kg, iv
- Format: ADME, organism-based
- stated_conditions: in vivo
property_label: bioavailability (%)
One number for each entry, in %.

Prompt: Input `CC(C)c1cccc(-c2c(-c3ccc4nn(C)cc4c3)nsc2NC(=O)[C@@H]2C[C@H]2C)n1.Cl` , output reported bioavailability.
Completion: 56.5

* * *

- assay_info: AUC (0 to 24 hrs) in Harlan Sprague-Dawley rat at 1.5 mg/kg, po
- Assay type: ADME, organism-based
- Design: time < 24 hr, dose 1.5 mg/kg, route oral
- stated_conditions: plasma
property_label: AUC(0-t) at 24 h (ng·h/mL)
Answers are plain numbers, in ng·h/mL.

Prompt: Input `CC(C)c1cccc(-c2c(-c3ccc4nn(C)cc4c3)nsc2NC(=O)[C@@H]2C[C@H]2C)n1.Cl` , output reported AUC(0-t) at 24 h.
Completion: 1570

* * *

- assay_info: Drug uptake in Harlan Sprague-Dawley rat brain at 10 mg/kg, po after 0.5 hrs
- Assay type: ADME, organism-based
- Set-up: dose 10 mg/kg, route oral
- stated_conditions: read-out: Drug uptake
property_label: concentration at 0.5 h
Units required after the number.

Prompt: Input `CC(C)c1cccc(-c2c(-c3ccc4nn(C)cc4c3)nsc2NC(=O)[C@@H]2C[C@H]2C)n1.Cl` , output reported concentration at 0.5 h.
Completion: 1240 nM

* * *

- Species on record: Homo sapiens
- assay_info: Selectivity ratio of IC50 for human recombinant mGlu1 receptor to IC50 for human recombinant mGlu5 receptor
property_label: Ratio IC50

Examples with answers:
Prompt: Input `COc1ccc(-c2nsc(NC(=O)[C@@H]3C[C@H]3C)c2C)cc1` , output reported Ratio IC50.
Completion: > 20

Prompt: Input `CNc1cccc(-c2c(-c3ccc4nn(C)cc4c3)nsc2NC(=O)[C@@H]2C[C@H]2C)n1` , output reported Ratio IC50.
Completion: 26

Prompt: Input `C[C@@H]1C[C@H]1C(=O)Nc1snc(-c2ccc3nn(C)cc3c2)c1-c1cccc(C2CCC2)n1` , output reported Ratio IC50.
Completion: 13

Prompt: Input `CC[C@@H]1C[C@H]1C(=O)Nc1snc(-c2ccc3nn(C)cc3c2)c1-c1cccc(N(C)C)n1` , output reported Ratio IC50.
Completion: > 357

Prompt: Input `CC(C)c1cccc(-c2c(-c3ccc4nn(C)cc4c3)nsc2NC(=O)[C@@H]2C[C@H]2C)n1.Cl` , output reported Ratio IC50.
Completion: 34

Prompt: Input `C[C@@H]1C[C@H]1C(=O)Nc1snc(-c2ccc3nn(C)cc3c2)c1-c1cccc(C(F)F)n1` , output reported Ratio IC50.
Completion: 13

List reported Ratio IC50 for each of these compounds:
1. C[C@@H]1C[C@H]1C(=O)Nc1snc(-c2ccc3n[nH]cc3c2)c1-c1cccc(N(C)C)n1
2. CCc1cccc(-c2c(-c3ccc4n[nH]cc4c3)nsc2NC(=O)[C@@H]2C[C@H]2C)n1
3. C[C@@H]1C[C@H]1C(=O)Nc1snc(-c2ccc3nn(C)cc3c2)c1-c1ccccn1

Completion:
["> 266", 86, 8]
